# assay target: 11β-HSD1 (Homo sapiens, UniProt P28845)
# Sequence (P28845 whole entry): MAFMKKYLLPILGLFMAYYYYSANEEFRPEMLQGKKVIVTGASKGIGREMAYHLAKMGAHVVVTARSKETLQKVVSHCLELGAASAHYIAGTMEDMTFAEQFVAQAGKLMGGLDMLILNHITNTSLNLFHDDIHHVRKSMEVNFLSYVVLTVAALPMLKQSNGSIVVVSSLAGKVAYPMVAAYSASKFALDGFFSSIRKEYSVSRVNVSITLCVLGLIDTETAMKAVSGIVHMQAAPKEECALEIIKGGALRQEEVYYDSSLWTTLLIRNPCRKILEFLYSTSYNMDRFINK
# assay notes: biochemical
# experimental conditions: read-out: Average % inhibition at 100 nM, Biological Test Example 1; 100 nM compound
result type: inhibition at 0.1 µM

{"columns": ["molecule", "reported result"],
 "data": [
  ["C[C@@H](c1ccc(-c2ccc(F)cc2F)cc1)N1CC[C@](CC(O)CO)(c2ccc(F)cc2)OC1=O (stereo partly shown) [EXAMPLE 52]", "98.6%"],
  ["CC1(c2ccccc2)CCN(c2cccc(-c3cc(F)ccc3F)c2)C(=O)O1 (stereo not shown)", "88.2%"],
  ["C=CCC1(c2cccs2)CCN([C@@H](C)c2ccc(-c3ccc(F)cc3)cc2)C(=O)O1 (single isomer, unassigned) [EXAMPLE 160 Isomer 2]", "95.9%"]
]}

I have this molecule here, CC(O)CC1(C(C)C)CCN([C@@H](C)c2ccc(-c3ccc(F)cc3F)cc2)C(=O)O1 (stereo partly shown) , and I need its recorded inhibition at 0.1 µM. 79.1%

Reported inhibition at 0.1 µM for O=C1OC(CCO)(c2ccccc2F)CCN1c1ccc(F)c(-c2ccc(F)cc2)c1 (stereo not shown) : what is it? 93.1%

I have this molecule here, `CC(=O)c1ccc(-c2ccc([C@H](C)N3CC[C@](CCCO)(c4ccccc4)OC3=O)cc2)s1` , and I need its recorded inhibition at 0.1 µM. 96.3%

So what does the record say about inhibition at 0.1 µM for C[C@@H](c1ccc(-c2ccc(F)cc2)cc1)N1CC[C@](CCO)(c2cccs2)OC1=O (single isomer, unassigned) [EXAMPLE 218 Isomer 1] ? 97.4%
